Exercise: state measured Plant response rating, Pigweed for each of the molecules provided.
Tested on: pigweed
assay.overview: Test A pre-/postemergence herbicide test
Assay type: in vivo, Amaranthus retroflexus
condition.summary: preemergence, 500 g ai/ha; 0 to 100 scale

Plant response rating, Pigweed reported for this molecule O=C1NCC(c2cccc(C(F)(F)F)c2)C1C(=O)Nc1ncc(Cl)s1 (racemic) : 0

Plant response rating, Pigweed reported for this molecule O=C1NCC(c2ccc(F)c(F)c2)C1C(=O)Nc1cccc2c1OC(F)(F)O2 (centres unmarked) : 0

Plant response rating, Pigweed reported for this molecule CC1NC(=O)C(C(=O)Nc2ccccc2C(F)(F)F)C1c1ccc(F)c(F)c1 (mixture of isomers) : 0

Plant response rating, Pigweed reported for this molecule CC1NC(=O)C(C(=O)Nc2ccccc2F)C1c1ccc(F)c(F)c1 (mixture of isomers) : 0

Plant response rating, Pigweed reported for this molecule O=C1NCC(c2ccc(F)c(F)c2)C1C(=O)Nc1cccc(F)c1F (racemic) : 20
